# Test system: OVCAR-3 ovarian
# Measurement protocol: NCI tumour cell line growth inhibition, 48 h
Each entry below carries its reported TGI.

# Compound, TGI
records = [
    ("CN(C)C1(c2cc3ccccc3s2)CCCCC1", "> 100 µM"),
    ("Cc1cc2c(C)nn(Cc3ccccc3Cl)c2c(C#N)c1C", "> 100 µM"),
    ("CN1C(=O)[C@@H]2[C@@H]3c4ccccc4N[C@@H]3c3[nH]c4ccccc4c3[C@@H]2C1=O", "40 µM"),
    ("Cc1ccc(S(=O)(=O)NCCCSCCO)cc1", "> 100 µM"),
    ("CC(=O)CC12NC(=O)N(C)N=C1N(C)C(=O)N(C)C2=O (configuration not stated)", "> 100 µM"),
    ("C=C(C)C1CCC2(C(=O)O)CCC3(C)C(CCC4C5(C)CCC(O)C(C)(C)C5CCC43C)C12 (configuration not stated)", "7.98 µM"),
    ("Cn1cc(-c2ccc3nnc(C(F)(F)c4ccc5ncccc5c4)n3n2)cn1", "> 100 µM"),
    ("CCOC(=O)c1cc([N+](=O)[O-])cc([N+](=O)[O-])c1Sc1ncnc2nc[nH]c12", "2.45 µM"),
    ("Cc1cc(N)c2cc(NC(=O)Nc3ccc4nc(C)cc(N)c4c3)ccc2n1", "> 100 µM"),
    ("COC(=O)[C@@H](NC(=O)c1ccc(CNC(=O)/C(C)=C/c2ccccc2)cc1)C(C)C", "> 100 µM"),
    ("COc1cc(-c2ccc(=O)oc2C#Cc2ccccc2)cc(OC)c1OC", "> 100 µM"),
    ("O=C(CC(=O)N1N=C(c2ccccc2)C(N=Nc2ccccc2Cl)C1=O)Nc1ccccc1Cl (configuration not stated)", "81.3 µM"),
    ("CCC1OC(=O)CC(O)C(C)C(OC2OC(C)CC(N(C)C)C2O)C(CC=O)CC(C)C(=O)/C=C/C2(C)OC2C1C (configuration not stated)", "59.1 µM"),
    ("O=C1NC2OC(CO)C(O)C(O)C2O1 (configuration not stated)", "> 100 µM"),
    ("C=C1CCC2(C(C)=O)COC1(C)O2 (configuration not stated)", "> 100 µM"),
    ("[Au+].c1c[n-]cn1.c1ccc([PH+](c2ccccc2)c2ccccc2)cc1", "5.2 µM"),
    ("C=C(C)[C@@H]1CCC2=C(CC[C@]3(C)[C@@H]([C@@H](CCC=C(C)C)C(=O)O)[C@H](O)C[C@@]23C)[C@@]1(C)CCC(=O)O", "> 100 µM"),
    ("CCOP(=O)(OCC)C(C)(CC)/N=C(\\N)NC#N (configuration not stated)", "> 100 µM"),
    ("COc1ccc(Nc2ncccc2C(=O)NCc2cn(Cc3cccc(Oc4ccccc4)c3)nn2)c(OC)c1", "4.78 µM"),
    ("NCCN(CCN)/[N+]([O-])=N/O", "> 100 µM"),
    ("COc1ccc2c(c1)CC1N(C)CCC13CCCCC23 (configuration not stated)", "> 100 µM"),
    ("c1cnc2nc3n(c2c1)CSC3", "> 100 µM"),
]

###

# System: NCI-H226 lung
# Measurement protocol: NCI tumour cell line growth inhibition, 48 h
Catalogue of compounds with associated TGI

# Compound, TGI
rows = [
    ("CC(=O)OC12OC(C)(C3C(=O)N(c4ccccc4)C(=O)C31)N(c1ccccc1)C2=O (stereo not drawn)", "> 100 µM"),
    ("CC(C)OC(=O)c1cccnc1/C=N/O", "> 100 µM"),
    ("COc1ccc(NC(=O)C2=CC(=O)c3ccc(O)cc3C2=O)c(OC)c1", "> 100 µM"),
    ("Cc1cc(=O)[nH]c(NNC(C#N)c2ccc(N(C)C)cc2)n1 (stereo not drawn)", "> 100 µM"),
    ("N#CC(C#N)C1CN2CCC1CC2 (stereo not drawn)", "> 100 µM"),
    ("O=C1C(c2c(O)[nH]c3ccc(I)cc23)=Nc2ccccc21", "6.94 µM"),
    ("O=[N+]([O-])c1ccc2c(N=Nc3ccc4ccccc4c3O)c(O)cc(S(=O)(=O)O)c2c1", "52.5 µM"),
    ("CCOC(=O)Nc1cc(-c2ccc(C)c(NS(C)(=O)=O)c2)nn2c(C)nnc12", "24.4 µM"),
]
